Experiment: Concentration tested in vitro to inhibit PAF-induced maximum aggregation (PAF-Antagonistic activity) by 50%.
measurement kind: IC50

{"columns": ["compound", "measurement kind", "val"],
 "data": [
  ["Cn1cc(C(C#N)N2CCN(C(=O)CC(c3ccccc3)c3ccccc3)CC2)c2ccccc21 (stereo not given)", "IC50", "5700 nM"],
  ["COc1cc(C(=O)N2CCN(Cc3cccnc3)CC2)cc(OC)c1OC", "IC50", "17000 nM"],
  ["N#CC(c1cccnc1)N1CCN(C(=O)OCC(c2ccccc2)c2ccccc2)CC1 (stereo not given)", "IC50", "26 nM"],
  ["O=C(CC(c1ccccc1)c1ccccc1)N1CCN(C(=O)c2cc[n+]([O-])cc2)CC1", "IC50", "1900 nM"],
  ["N#CC(c1ccncc1)N1CCN(C(=O)CC(c2ccccc2)c2ccccc2)CC1 (stereo not given)", "IC50", "51 nM"],
  ["CC(C(=O)N1CCN(C(C#N)c2cccnc2)CC1)(c1ccccc1)c1ccccc1 (stereo not given)", "IC50", "1.9 nM"],
  ["N#CC(c1ccncc1)N1CCN(C(=O)CC(O)(c2ccccc2)c2ccccc2)CC1 (stereo not given)", "IC50", "2.7 nM"],
  ["N#CC(c1cccnc1)N1CCN(C(=O)CN(Cc2ccccc2)c2ccccc2)CC1 (stereo not given)", "IC50", "24 nM"],
  ["N#CC(c1cccnc1)N1CCN(C(=O)CNCCCc2ccccc2)CC1 (stereo not given)", "IC50", "530 nM"],
  ["N#CC(c1cccnc1)N1CCN(C(=O)Cc2c[nH]c3ccccc23)CC1 (stereo not given)", "IC50", "450 nM"],
  ["COc1cc(C(=O)N2CCN(C(=O)c3cc(OC)c(OC)c(OC)c3)CC2)cc(OC)c1OC", "IC50", "9400 nM"],
  ["N#CC(c1cccc([N+](=O)[O-])c1)N1CCN(C(=O)CC(c2ccccc2)c2ccccc2)CC1 (stereo not given)", "IC50", "11000 nM"],
  ["O=C(CC(c1ccccc1)c1ccccc1)N1CCN(Cc2cccnc2)CC1", "IC50", "520 nM"],
  ["COc1cc(C(=O)N2CCN(C(C#N)c3ccccn3)CC2)cc(OC)c1OC (stereo not given)", "IC50", "44000 nM"],
  ["N#CC(c1ccncc1)N1CCN(C(=O)CNC(=O)C(c2ccccc2)c2ccccc2)CC1 (stereo not given)", "IC50", "680 nM"],
  ["O=C(C(c1ccccc1)c1ccccc1)N1CC[N+]([O-])(Cc2cccnc2)CC1", "IC50", "44000 nM"],
  ["N#CC(c1cccnc1)N1CCN(C(=O)c2ccccc2)CC1 (stereo not given)", "IC50", "4800 nM"],
  ["N#CC(CN1CCN(C(=O)C(c2ccccc2)c2ccccc2)CC1)c1cccnc1 (stereo not given)", "IC50", "2300 nM"],
  ["Cn1cccc1C(C#N)N1CCN(C(=O)CC(c2ccccc2)c2ccccc2)CC1 (stereo not given)", "IC50", "25000 nM"],
  ["N#CC(c1ccncc1)N1CCN(C(=O)CCNC(c2ccccc2)c2ccccc2)CC1 (stereo not given)", "IC50", "55 nM"]
]}
